Biological target: T1, human activated protein C (APC) (human, UniProt P04070 43-461)
T1 construct: Bought (Haematologic Technologies; plasma-derived from Enzyme Research Laboratories); Two-chain disulfide-linked protease
T1 sequence (P04070 other isoform, or with tags, fused parts or gaps): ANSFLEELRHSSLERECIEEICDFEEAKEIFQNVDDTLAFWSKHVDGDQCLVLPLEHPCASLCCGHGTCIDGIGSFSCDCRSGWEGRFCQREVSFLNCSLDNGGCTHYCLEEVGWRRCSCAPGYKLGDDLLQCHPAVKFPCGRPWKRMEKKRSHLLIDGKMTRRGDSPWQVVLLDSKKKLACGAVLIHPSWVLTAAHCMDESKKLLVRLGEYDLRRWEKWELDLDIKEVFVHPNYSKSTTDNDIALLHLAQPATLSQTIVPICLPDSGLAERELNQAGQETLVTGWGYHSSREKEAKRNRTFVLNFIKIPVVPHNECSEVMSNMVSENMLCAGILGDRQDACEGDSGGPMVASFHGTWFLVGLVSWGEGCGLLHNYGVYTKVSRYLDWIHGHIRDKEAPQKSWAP
Assay: BLI, VHH captured via anti-V5, APC in solution
READOUT KIND: koff (s⁻¹)
The response must be a number in s⁻¹ with no trailing unit.

LP20 (SR16983-R4-P1-B07) (VHH, not shown: small tags and cut ends, Llama VHH purified from E. coli periplasm) VHH: QLQLVESGGGLVQAGGSLRLSCTASGSTVRVTAGGWYRQTPGNERELVADIDNGGSTTYADSVKGRFTISRDNAKNAVDLQMNSLKPEDTAVYRCFVIAIPDSAPRPRAYWGQGTEVTVSS
0.0007

Proceeding to the next binder to report its koff.
Input line: Please look up its koff: LP7 (SR16983-R3-P2-H08) (VHH, not shown: small tags and cut ends, Llama VHH purified from E. coli periplasm) VHH: EVQLVESGGGLVQAGGSLRLSCAASGTTFDMNSMGWYRQGPGFKRELVATISMGGDTNYADSVKGRFTISRANAKNTVYMQMNSLKPEDTAVYYCNAERIWPNRRTFWGQGTQVTVSS
Output line: 0.0041
